settings: human, Liver;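 also: human clinical data: severe hepatitis, meaning potentially life-threatening liver failure or clinically observed cases, the value counts how many indexed literature references report it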
OBSERVABLE: Hepatotoxicity (severe hepatitis)

Consider the compound "CNCCCC12CCC(c3ccccc31)c1ccccc12" and give its measured Hepatotoxicity (severe hepatitis). 0

Could you share which Hepatotoxicity (severe hepatitis) value was measured for "CC1=C(/C=C/C(C)=C/C=C/C(C)=C/CO)C(C)(C)CCC1.O=C(O)Cc1cc(I)c(Oc2ccc(O)c(I)c2)c(I)c1" ? 1

# query: Hepatotoxicity (severe hepatitis) of entry "NC(N)=Nc1nc(CSCCC(N)=NS(N)(=O)=O)cs1" 0

Consider the compound shown here: "Nc1ccn([C@@H]2O[C@H](CO)[C@@H](O)[C@@H]2O)c(=O)n1" What is its recorded Hepatotoxicity (severe hepatitis)? 6

Would you kindly share the measured Hepatotoxicity (severe hepatitis) for "Cc1ccc(C(=O)c2ccc(CC(=O)O)n2C)cc1" ? 0
